Recorded measurements of neutralization concentration (GMC, CPE reduction on Vero C1008 cells), one per entry
target: EBOV Mayinga (GenBank: NC_002549) (Zaire Ebolavirus (EBOV Mayinga)) (UniProt Q05320); assay: cell-based or functional assay
Please state the figure in µg/mL; there is no need to write the unit.

{"BINDER": "4T0429 (antibody, V domains shown) VH: QVQLQQWGAGLLKPSETLSLTCAVYRGSFITYYWSWVRQPPGRGLEWIGEIYKDGSASYNPSLKNRVTISLDMSKNHFSLNLDSVTAADTAVYYCARHGHTGMDVWGQGTTVTVSS VL: QSVLTQPPSTSGTPGQRVTISCSGSSSNIGLNYVYWYQQLPGTAPKLLIYRNNQRPSGVPDRFSGSKSGTSASLAISGLRSEDEADYYCAAWDDSLSAYIFGTGTKVTVL", "UNIT LABEL": "µg/mL", "TEST VALUE": 35}

Sample 5T0209 (antibody, V domains shown) VH: EVQLVDSGGGLVKPGGSLRLSCAASGFTFSKAWMSWVRQAPGKGLEWVGRIKSRTDGGTTDYAAPVRGRFTISRDDSKNTLFLQMNSLKPEDTAIYYCATDYYESRGYWGQGTLVTVSS VL: QSVLTQPPSVSGAPGQRVTISCTGSSSNIGAGYDVNWYQQIPGTAPKLLIYGNNKRPSGVPDRFSGSKSGTSVSLAITGLQAEDEADYYCQSYDSRLSDHWVFGGGTKLTVL ; neutralization concentration (GMC, CPE reduction on Vero C1008 cells) observed: 1.77

Sample 3T0553 (antibody, V domains shown) VH: QVQLVESGGGVVQPGRSLRLSCAASGFTFTTCAMHWVRQAPGKGLEWVSVMWYDGSREYYADSVKGRFTISRDNSKNTLYLEMQSLRAEDTAVYYCARGGDLLVEVDSTDYYGLDVWGQGTTVTVSS VL: DIQMTQSPSAMSASVGDRVTITCRASQGISHSLAWFQQKPGKVPKRLIYSASTLQSGVPSRFSGSGSGTEFTLTISSLQPEDFATYYCLQHNRYPWTFGQGTKVEIK ; neutralization concentration (GMC, CPE reduction on Vero C1008 cells) observed: 1.31
